Each recorded value in this set is attributed to ChEMBL document CHEMBL1777779.

- ASSAYED_SYSTEM: Muscarinic acetylcholine receptor M2 (Homo sapiens)
- Sequence (P08172 whole entry): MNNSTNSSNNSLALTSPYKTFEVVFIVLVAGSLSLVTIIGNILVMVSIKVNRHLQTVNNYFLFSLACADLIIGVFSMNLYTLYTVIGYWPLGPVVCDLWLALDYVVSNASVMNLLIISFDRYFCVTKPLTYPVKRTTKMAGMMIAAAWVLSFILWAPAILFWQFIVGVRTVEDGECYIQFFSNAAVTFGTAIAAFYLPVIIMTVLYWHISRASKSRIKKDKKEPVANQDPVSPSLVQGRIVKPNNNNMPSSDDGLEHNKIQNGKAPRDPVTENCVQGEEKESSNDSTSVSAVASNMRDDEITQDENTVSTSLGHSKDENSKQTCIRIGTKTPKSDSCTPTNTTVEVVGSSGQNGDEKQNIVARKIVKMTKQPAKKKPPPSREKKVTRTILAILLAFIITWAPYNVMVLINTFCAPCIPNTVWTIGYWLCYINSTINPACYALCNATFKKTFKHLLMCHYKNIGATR
- TEST_NAME: Displacement of [3H]NMS from human muscarinic M2 receptor expressed in CHO-K1 cells after 1 hr by scintillation counting
pIC50: −log10 of the molar value.
Label 1 when pIC50 >= 8; otherwise 0.

{"STRUCTURE_SMILES": "O=C(O[C@H]1CN2CCC1CC2)N(Cc1ccccc1)c1ccc(F)cc1", "ASSAYED_SYSTEM": "Muscarinic acetylcholine receptor M2 (Homo sapiens)", "DISCRETE_LABEL": 0}
{"STRUCTURE_SMILES": "O=C(O[C@H]1C[N+]2(CCCc3ccccc3)CCC1CC2)N(Cc1ccccc1)c1ccccc1.[Br-]", "ASSAYED_SYSTEM": "Muscarinic acetylcholine receptor M2 (Homo sapiens)", "DISCRETE_LABEL": 1}
{"STRUCTURE_SMILES": "CCCCN(C(=O)O[C@H]1C[N+]2(CCCc3ccccc3)CCC1CC2)c1ccccc1", "ASSAYED_SYSTEM": "Muscarinic acetylcholine receptor M2 (Homo sapiens)", "DISCRETE_LABEL": 0}
{"STRUCTURE_SMILES": "O=C(O[C@H]1C[N+]2(CCCc3cccs3)CCC1CC2)N(Cc1cccs1)c1ccccc1.[Br-]", "ASSAYED_SYSTEM": "Muscarinic acetylcholine receptor M2 (Homo sapiens)", "DISCRETE_LABEL": 1}
{"STRUCTURE_SMILES": "O=C(O[C@H]1CN2CCC1CC2)N(Cc1cc(F)c(F)c(F)c1)c1cccc(F)c1", "ASSAYED_SYSTEM": "Muscarinic acetylcholine receptor M2 (Homo sapiens)", "DISCRETE_LABEL": 0}
{"STRUCTURE_SMILES": "O=C(O[C@H]1CN2CCC1CC2)N(Cc1ccccc1)c1ccccc1", "ASSAYED_SYSTEM": "Muscarinic acetylcholine receptor M2 (Homo sapiens)", "DISCRETE_LABEL": 1}
{"STRUCTURE_SMILES": "O=C(O[C@H]1CN2CCC1CC2)N(CCc1ccccc1)c1ccccc1", "ASSAYED_SYSTEM": "Muscarinic acetylcholine receptor M2 (Homo sapiens)", "DISCRETE_LABEL": 0}
{"STRUCTURE_SMILES": "O=C(O[C@H]1CN2CCC1CC2)N(Cc1cccs1)Cc1cccs1", "ASSAYED_SYSTEM": "Muscarinic acetylcholine receptor M2 (Homo sapiens)", "DISCRETE_LABEL": 0}
{"STRUCTURE_SMILES": "O=C(O[C@H]1CN2CCC1CC2)N(Cc1cccc(F)c1)c1cccc(F)c1", "ASSAYED_SYSTEM": "Muscarinic acetylcholine receptor M2 (Homo sapiens)", "DISCRETE_LABEL": 0}
{"STRUCTURE_SMILES": "O=C(O[C@H]1CN2CCC1CC2)N(Cc1ccsc1)c1ccccc1", "ASSAYED_SYSTEM": "Muscarinic acetylcholine receptor M2 (Homo sapiens)", "DISCRETE_LABEL": 1}
{"STRUCTURE_SMILES": "O=C(O[C@H]1CN2CCC1CC2)N(Cc1cccs1)c1ccccc1", "ASSAYED_SYSTEM": "Muscarinic acetylcholine receptor M2 (Homo sapiens)", "DISCRETE_LABEL": 1}
{"STRUCTURE_SMILES": "CC(C)N(C(=O)O[C@H]1CN2CCC1CC2)c1ccccc1", "ASSAYED_SYSTEM": "Muscarinic acetylcholine receptor M2 (Homo sapiens)", "DISCRETE_LABEL": 0}
{"STRUCTURE_SMILES": "O=C(O[C@H]1C[N+]2(CCOc3ccccc3)CCC1CC2)N(Cc1ccsc1)c1ccccc1.[Br-]", "ASSAYED_SYSTEM": "Muscarinic acetylcholine receptor M2 (Homo sapiens)", "DISCRETE_LABEL": 1}
{"STRUCTURE_SMILES": "C[N+]12CCC(CC1)[C@@H](OC(=O)N(Cc1cccs1)c1ccccc1)C2", "ASSAYED_SYSTEM": "Muscarinic acetylcholine receptor M2 (Homo sapiens)", "DISCRETE_LABEL": 0}
{"STRUCTURE_SMILES": "O=C(O[C@H]1CN2CCC1CC2)N(Cc1ccccc1)Cc1cccs1", "ASSAYED_SYSTEM": "Muscarinic acetylcholine receptor M2 (Homo sapiens)", "DISCRETE_LABEL": 0}
{"STRUCTURE_SMILES": "O=C(O[C@H]1C[N+]2(CCc3ccccc3)CCC1CC2)N(Cc1ccccc1)c1ccccc1.[Br-]", "ASSAYED_SYSTEM": "Muscarinic acetylcholine receptor M2 (Homo sapiens)", "DISCRETE_LABEL": 0}
